target: T1, His-tagged P3028 (human, also: His tag, length and end not given here); experiment: PEPSCAN ELISA, peptide on chip;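 further: binding detected by peroxidase ELISA with ABTS, OD405 colour imaged by CCD camera before and after staining, raw OD405 reported as rampo units, air-bubble wells scored 0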
T1 construct: in solution at 0.5 ug/mL, detected with mouse anti-His antibody and rabbit anti-mouse peroxidase (rampo); also called PGE73; His-tag-P3028; not shown: His tag
T1 peptide: VFDEFKPLVEEPQNLIK
Ends that are not written are not given here.
Catalogue of binders with associated RAMPO Score

[
  {
    "binder": "KKLDTFFVKLSLFGER [SEQ ID NO 377]",
    "RAMPO Score": "343 rampo units"
  },
  {
    "binder": "KKLDTFFVKLSLLTER [SEQ ID NO 366]",
    "RAMPO Score": "448 rampo units"
  },
  {
    "binder": "KKLDTFTVKLSLFTER [SEQ ID NO 324]",
    "RAMPO Score": "517 rampo units"
  },
  {
    "binder": "TKLDTFFVKLSLFTER [SEQ ID NO 280]",
    "RAMPO Score": "493 rampo units"
  },
  {
    "binder": "KKLDTVFVKLSLFTER [SEQ ID NO 319]",
    "RAMPO Score": "547 rampo units"
  },
  {
    "binder": "KKLDTAFVKLSLFTER [SEQ ID NO 313]",
    "RAMPO Score": "575 rampo units"
  },
  {
    "binder": "KKLDTFFVKLMLFTER [SEQ ID NO 346]",
    "RAMPO Score": "744 rampo units"
  },
  {
    "binder": "KKLDTFFVKLSSFTER [SEQ ID NO 357]",
    "RAMPO Score": "478 rampo units"
  },
  {
    "binder": "KKLDTFFVKLSLFTDR [SEQ ID NO 387]",
    "RAMPO Score": "404 rampo units"
  },
  {
    "binder": "KKLDTFFVKLSLFNER [SEQ ID NO 382]",
    "RAMPO Score": "599 rampo units"
  },
  {
    "binder": "KKLDTFFVKLSLQTER [SEQ ID NO 370]",
    "RAMPO Score": "1140 rampo units"
  },
  {
    "binder": "KKLDTFFVKLSHFTER [SEQ ID NO 351]",
    "RAMPO Score": "460 rampo units"
  },
  {
    "binder": "KKLWTFFVKLSLFTER [SEQ ID NO 302]",
    "RAMPO Score": "443 rampo units"
  },
  {
    "binder": "KKLDTFFGKLSLFTER [SEQ ID NO 327]",
    "RAMPO Score": "379 rampo units"
  },
  {
    "binder": "KKLDTFFVKLSLFHER [SEQ ID NO 378]",
    "RAMPO Score": "463 rampo units"
  }
]

This collection of values is drawn from patent US20180177842A1.
